Molecular target: T1, BsSmcH-CC8 (Bacillus subtilis, UniProt P51834 489-680)
T1 sequence: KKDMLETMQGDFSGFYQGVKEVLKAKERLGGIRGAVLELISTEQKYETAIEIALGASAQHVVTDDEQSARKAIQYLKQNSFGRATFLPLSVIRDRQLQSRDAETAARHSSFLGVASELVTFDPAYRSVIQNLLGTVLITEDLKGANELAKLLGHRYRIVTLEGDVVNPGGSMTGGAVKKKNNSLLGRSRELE
Assay: fluorescence anisotropy
pKd: −log10 of the molar value.
Quantity name: pKd

Query: Query (binder): ds40 (dsDNA) DNA 1: TTAGTTGTTCGTAGTGCTCGTCTGGCTCTGGATTACCCGC DNA 2: GCGGGTAATCCAGAGCCAGACGAGCACTACGAACAACTAA ; field requested: pKd
Reply: ~6.70
